target: Human Fc (human); experiment: ELISA, negative control
Returns: string. Value is YES if measured optical density is below 0.3 OD, and NO if it is greater than or equal to it.

In the record for 368_A07 (antibody, V domains shown) VH: EVQLLESGGGLVQPGGSLRLSCAASGFTFSSYSMNWVRQAPGKGLEWVAGINYNSGYTSYADSVKGRFTISRDNSKNTLYLQMNSLRAEDTAVYYCARSANWHDTHLDYWGQGTLVTVSS VL: DIQMTQSPSSLSASVGDRVTITCRASQSILTYLNWYQQKPGKAPKLVIYATTSRASGVPSRFSGSGSGTDFTLTISSLQPEDFATYYCQQSNELPLTFGGGTKVEIK , is optical density less than 0.3 OD?
YES

In the record for 370_D11 (antibody, V domains shown) VH: EVQLLESGGGLVQPGGSLRLSCAASGFTFDSYSMNWVRQAPGKGLEWVSGINYNGGYTGYADSVKGRFTISRDNSKNTLYLQMNSLRAEDTAVYYCARSANWHDTALDYWGQGTLVTVSS VL: DIQMTQSPSSLSASVGDRVTITCRASQSIVSYLNWYQQKPGKAPKLLIYAATSRASGVPSRFSGSGSGTDFTLTISSLQPEDFATYYCQQSYDTPLTFGGGTKVEIK , is optical density less than 0.3 OD?
NO

In the record for 368_E06 (antibody, V domains shown) VH: EVQLLESGGGLVQPGGSLRLSCAASGFTFSDYGMHWVRQAPGKGLEWVSGINYNGGYTGYADSVKGRFTISRDNSKNTLYLQMNSLRAEDTAVYYCARSANWHDTALDYWGQGTLVTVSS VL: DIQMTQSPSSLSASVGDRVTITCRASQSILSYLNWYQQKPGKAPKLVIYGATSRASGVPSRFSGSGSGTDFTLTISSLQPEDFATYYCQQSYDSPLTFGGGTKVEIK , is optical density less than 0.3 OD?
NO

In the record for 373_E05 (antibody, V domains shown) VH: EVQLLESGGGLVQPGGSLRLSCAASGFTFDSYGMNWVRQAPGKGLEWVSNINYNGGYTSYADSVKGRFTISRDNSKNTLYLQMNSLRAEDTAVYYCARSANWHDTALDYWGQGTLVTVSS VL: DIQMTQSPSSLSASVGDRVTITCRASQSILSYVNWYQQKPGKAPKLLIYAVTSRASGVPSRFSGSGSGTDFTLTISSLQPEDFATYYCQQSYDLPLTFGGGTKVEIK , is optical density less than 0.3 OD?
YES

In the record for 367_F07 (antibody, V domains shown) VH: EVQLLESGGGLVQPGGSLRLSCAASGFTFDSYGMHWVRQAPGKGLEWVANINYNGGYTGYADSVKGRFTISRDNSKNTLYLQMNSLRAEDTAVYYCARSANWHDTALDYWGQGTLVTVSS VL: DIQMTQSPSSLSASVGDRVTITCRASQSIISYVNWYQQKPGKAPKLLIYAATSRASGVPSRFSGSGSGTDFTLTISSLQPEDFATYYCQQSYETPLTFGGGTKVEIK , is optical density less than 0.3 OD?
YES
